B1: ZBED2 (parent)
chain: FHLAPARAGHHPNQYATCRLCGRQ

# Variants of: B1
# ASSAY_PROCEDURE: protein stability index of a GFP-peptide fusion (GPS, HEK-293T) (PSI 1-6); higher = more stable;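 further: lentivirally expressed fusions sorted by FACS into six bins by GFP to DsRed ratio, PSI derived from sequencing read proportions per bin multiplied by bin number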
# RUN_CONDITIONS: c terminus: a fixed tail appended
Label Not met if protein stability index falls below 2; label Met in every other case.

Exercise: Reported protein stability index at or above 2? R7T
Solution: Met

Exercise: Then this variant: H2Q
Solution: Met

Exercise: Then this variant: L3S
Solution: Not met

Exercise: Then this variant: A16G
Solution: Not met

Exercise: Then this variant: C21Q
Solution: Met

Exercise: Then this variant: H11P
Solution: Not met

Exercise: Then this variant: L20Y
Solution: Met

Exercise: Then this variant: C18F
Solution: Not met

Exercise: Then this variant: C18M
Solution: Not met

Exercise: Then this variant: H10V
Solution: Not met

Exercise: Then this variant: R19Q
Solution: Met

Exercise: Then this variant: H10K
Solution: Met

Exercise: Then this variant: H11D
Solution: Not met

Exercise: Then this variant: G9D
Solution: Not met

Exercise: Then this variant: Y15E
Solution: Met

Exercise: Then this variant: P5I
Solution: Met

Exercise: Then this variant: R23I
Solution: Not met

Exercise: Then this variant: H2I
Solution: Met

Exercise: Then this variant: G22N
Solution: Not met

Exercise: Then this variant: A4D
Solution: Not met

Exercise: Then this variant: R19A
Solution: Not met

Exercise: Then this variant: A6Q
Solution: Not met

Exercise: Then this variant: R7F
Solution: Met

Exercise: Then this variant: A8N
Solution: Met

Exercise: Then this variant: Q14Y
Solution: Met

Exercise: Then this variant: F1G
Solution: Not met

Exercise: Then this variant: A6R
Solution: Not met

Exercise: Then this variant: Y15C
Solution: Not met

Exercise: Then this variant: H10N
Solution: Not met

Exercise: Then this variant: L20R
Solution: Not met

Exercise: Then this variant: P5N
Solution: Not met

Exercise: Then this variant: Y15K
Solution: Not met

Exercise: Then this variant: A6E
Solution: Met

Exercise: Then this variant: A4L
Solution: Not met

Exercise: Then this variant: G9P
Solution: Not met

Exercise: Then this variant: F1A
Solution: Met

Exercise: Then this variant: A4N
Solution: Not met

Exercise: Then this variant: L20P
Solution: Met

Exercise: Then this variant: A6G
Solution: Met

Exercise: Then this variant: G9C
Solution: Met

Exercise: Then this variant: H2L
Solution: Not met

Exercise: Then this variant: T17K
Solution: Not met

Exercise: Then this variant: A6D
Solution: Not met

Exercise: Then this variant: Q24A
Solution: Not met

Exercise: Then this variant: H10E
Solution: Met

Exercise: Then this variant: P12L
Solution: Met

Exercise: Then this variant: A6S
Solution: Not met

Exercise: Then this variant: G22W
Solution: Not met

Exercise: Then this variant: A16H
Solution: Met

Exercise: Then this variant: R23A
Solution: Not met

Exercise: Then this variant: H2S
Solution: Not met

Exercise: Then this variant: C18T
Solution: Met

Exercise: Then this variant: A6K
Solution: Not met

Exercise: Then this variant: L20G
Solution: Met

Exercise: Then this variant: H10Q
Solution: Met

Exercise: Then this variant: L20T
Solution: Not met

Exercise: Then this variant: L3Q
Solution: Not met

Exercise: Then this variant: G22C
Solution: Met

Exercise: Then this variant: P5M
Solution: Not met

Exercise: Then this variant: R7M
Solution: Met

Exercise: Then this variant: Y15F
Solution: Met

Exercise: Then this variant: Q24Y
Solution: Not met

Exercise: Then this variant: Q24V
Solution: Not met

Exercise: Then this variant: C21K
Solution: Met

Exercise: Then this variant: A6M
Solution: Not met

Exercise: Then this variant: C18Q
Solution: Met

Exercise: Then this variant: C18S
Solution: Met

Exercise: Then this variant: F1Y
Solution: Not met

Exercise: Then this variant: L20C
Solution: Not met

Exercise: Then this variant: A8G
Solution: Met

Exercise: Then this variant: A6N
Solution: Not met

Exercise: Then this variant: R19K
Solution: Met

Exercise: Then this variant: H11Q
Solution: Not met

Exercise: Then this variant: F1V
Solution: Met

Exercise: Then this variant: Q24T
Solution: Not met

Exercise: Then this variant: R23Q
Solution: Met

Exercise: Then this variant: L3A
Solution: Not met

Exercise: Then this variant: C21H
Solution: Met

Exercise: Then this variant: H10W
Solution: Not met

Exercise: Then this variant: R7D
Solution: Met

Exercise: Then this variant: L20Q
Solution: Not met
